B1: SPRY1 (parent)
chain: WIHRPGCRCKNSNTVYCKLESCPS

# Variants of: B1
# assay-summary: protein stability index of a GFP-peptide fusion (GPS, HEK-293T) (PSI 1-6); higher = more stable;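 also: lentivirally expressed fusions sorted by FACS into six bins by GFP to DsRed ratio, PSI derived from sequencing read proportions per bin multiplied by bin number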
# assay-setup: c terminus: a fixed tail appended
Decide using protein stability index: a value greater than or equal to 2 is Satisfied, a smaller one is Not satisfied.

Check out these entries, answers already filled in.
C22N Not satisfied
L19A Satisfied
H3C Not satisfied
Y16Q Satisfied
Y16I Not satisfied
T14L Satisfied
H3W Not satisfied
T14V Not satisfied

Below: the item to evaluate.
Does protein stability index meet or surpass 2 for "G6I" ? Satisfied
